B1: TRIM9 (parent)
chain: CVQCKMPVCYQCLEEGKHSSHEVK

Variants of: B1
test.description: protein stability index of a GFP-peptide fusion (GPS, HEK-293T) (PSI 1-6); higher = more stable;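 note: lentivirally expressed fusions sorted by FACS into six bins by GFP to DsRed ratio, PSI derived from sequencing read proportions per bin multiplied by bin number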
condition.notes: c terminus: a fixed tail appended
Please go through the items and note down their protein stability index.
The reply should be a number, written without any unit.

Entry under test: CVQCKMPVCRQCLEEGKHSSHEVK [Y10R] . Its protein stability index was 4.27

Lookup result for CVQCKMPVCYQCLEEGKHSSHEVG [K24G] ; measured protein stability index: 3.19

Recorded result, CVQCKMPVCYQCLEEGKHSSHEVT [K24T] , protein stability index: 3.7

Reported protein stability index ( CVQCKMPVCEQCLEEGKHSSHEVK [Y10E] ) = 4.32

response.value for CVQCKQPVCYQCLEEGKHSSHEVK [M6Q] (field: protein stability index) = 4.36

Short answer for CVQCKMPVCYWCLEEGKHSSHEVK [Q11W] : protein stability index was 2.93

The variant identified as CGQCKMPVCYQCLEEGKHSSHEVK [V2G] registered its protein stability index at 3.6

Query CVQCKMPVCYQCLEEGKHSSSEVK [H21S] yields protein stability index of 3.54

For this variant ( CVQCKMPVIYQCLEEGKHSSHEVK [C9I] ), measured protein stability index is 3.18

Lab note: CVQCKMPVCYQCDEEGKHSSHEVK [L13D] gave protein stability index of 4.04

Noted for CVQCKMPVCYQCLEEGKHSSHEVV [K24V] : its protein stability index reads 3.8

Noted for CVQCKMPVCVQCLEEGKHSSHEVK [Y10V] : its protein stability index reads 3.74

Looking up CVQCKMPVCYQCLEEGKHSYHEVK [S20Y] , I see its protein stability index listed as 3.24

The measured protein stability index associated with CVQCKMPVCYQCLEEEKHSSHEVK [G16E] reads 3.94

For CNQCKMPVCYQCLEEGKHSSHEVK [V2N] the variant record lists protein stability index as 3.46

The variant identified as CVQCKMPVCYQKLEEGKHSSHEVK [C12K] registered its protein stability index at 4.8

Measured protein stability index of CVQSKMPVCYQCLEEGKHSSHEVK [C4S] : 3.23

What the record says about CVQCKMPVCYQCLEEGKHSSHEVE [K24E] : protein stability index is 4.59

// protein stability index value for CVQCKMPVCYQCLEEGKHSSHEYK [V23Y] : 3.46

// sample CVQCKMPVCYQCLEEGKHSKHEVK [S20K] , its protein stability index was 4.26

According to the records, this variant CVQCKMPVCYQCLEEGKSSSHEVK [H18S] displays protein stability index of 4.42

Entry under test: CVQCKMPVCYQCLEESKHSSHEVK [G16S] . Its protein stability index was 3.7

Lookup result for CVHCKMPVCYQCLEEGKHSSHEVK [Q3H] ; measured protein stability index: 4.52

Looking up CVQCKMPVCYQCLEEGKHSTHEVK [S20T] , I found its protein stability index recorded as 4.07

According to the records, this variant CTQCKMPVCYQCLEEGKHSSHEVK [V2T] displays protein stability index of 3.85

Sure, the documented protein stability index for CVQCKMPVCYQCLEEGKHSSHWVK [E22W] is 3.11

Documented protein stability index of CVQCKMPVCAQCLEEGKHSSHEVK [Y10A] : 4.26

In plain terms, CVGCKMPVCYQCLEEGKHSSHEVK [Q3G] has a documented protein stability index of 3.73

Value of protein stability index reported for the variant CVQCKMPVCYQCLEEGKHSSHGVK [E22G] is 3.32

The recorded protein stability index for CVQCKMPVCYQCLEEGKHSSHEVP [K24P] is 3.62

For record CHQCKMPVCYQCLEEGKHSSHEVK [V2H] the listed protein stability index is 4.63

Item: CKQCKMPVCYQCLEEGKHSSHEVK [V2K] | protein stability index: 4.29

TVQCKMPVCYQCLEEGKHSSHEVK [C1T] has a reported protein stability index of 3.75

Noted for CVQCKMPVCYQCLEEGKHSSIEVK [H21I] : its protein stability index reads 3.66

Given item CVQCKMPVCYQCLEEGKHSSHEEK [V23E] , the value recorded as its protein stability index is 4.28

Reported protein stability index of CVQCKMPVCYQCLEDGKHSSHEVK [E15D] : 4.07

Per the records, this variant ( CVQCKMPVCYQCLEEGKHVSHEVK [S19V] ) has protein stability index equal to 3.86

Value of measured protein stability index for the entry CVQCKMPVCYQCLEEGKHWSHEVK [S19W] : 3.35

Query CVQCKMPVCYQLLEEGKHSSHEVK [C12L] yields protein stability index of 3.48

Memo: CVQCKMPVCYQCFEEGKHSSHEVK [L13F] , reported protein stability index: 3.86

Memo: CVQCKMPVCYVCLEEGKHSSHEVK [Q11V] , reported protein stability index: 3.27

Entry CVQCKMPVCYSCLEEGKHSSHEVK [Q11S] ; protein stability index = 3.67

Short answer for CVQGKMPVCYQCLEEGKHSSHEVK [C4G] : protein stability index was 3.15

In plain terms, CVQCKMPVCYQCLEEGKHISHEVK [S19I] has a documented protein stability index of 3.4

// sample CVQCKMPVPYQCLEEGKHSSHEVK [C9P] , its protein stability index was 3.02

Record summary for CVQCKMPVCYQCLEEGKHSSHEGK [V23G] : reported protein stability index = 3.84

Record CVQCKMPVCSQCLEEGKHSSHEVK [Y10S] , field protein stability index: 3.97

Entry YVQCKMPVCYQCLEEGKHSSHEVK [C1Y] ; protein stability index = 1.74

Per the records, this variant ( CVQCKMPVCYQCLIEGKHSSHEVK [E14I] ) has protein stability index equal to 3.55

Short answer for VVQCKMPVCYQCLEEGKHSSHEVK [C1V] : protein stability index was 3.23

Documented protein stability index of CVQCKMPVCYQCLEEGKHFSHEVK [S19F] : 3.37

The variant identified as CVQCKMPVCKQCLEEGKHSSHEVK [Y10K] registered its protein stability index at 4.15

The variant listed as CVQCKMPVCYQCLEEGKHQSHEVK [S19Q] shows protein stability index equal to 4.51

protein stability index for CVQCKMPVCYQCLEEGKISSHEVK [H18I] is 3.41
